System: P. vulgaris DSM-2140
Listed below: MIC values for each entry.

The cases that follow already have their MIC on record.
1) CC(C)Oc1c(N)ccc(C(=O)Nc2ccc(C(=O)N[C@@H](CC(N)=O)C(=O)Nc3ccc(C(=O)Nc4ccc(C(=O)Nc5ccc(C(=O)O)cc5)c(O)c4OC(C)C)cc3)cc2)c1O: 4 µg/mL
2) CC(C)Oc1c(NC(=O)c2ccc(NC(=O)c3ccc(NC(=O)[C@H](CC(N)=O)NC(=O)c4ccc(NC(=O)c5ccc(C#N)cc5)cc4)cc3)c(OC(C)C)c2O)ccc(C(=O)O)c1O: 0.25 µg/mL

Input line: API: value(readout=MIC, system=P. vulgaris DSM-2140) for record "C/C(=C\c1ccc(O)cc1)C(=O)Nc1ccc(C(=O)N[C@@H](CC(N)=O)C(=O)Nc2ccc(C(=O)Nc3ccc(C(=O)Nc4ccc(C(=O)O)cc4)c(O)c3OC(C)C)cc2)cc1"
Output line: 0.13 µg/mL
